The origin of these recorded values is patent US20100158926A1.

Molecular target: human ErbB2, full length, on cells (B300.19/hErbB2 clone #44; MCF7; BT474; SKBR3) (human)
Would you mind telling me the reported N1 EC50 (ng/ml), inhibition of BT474 cell proliferation of each entry?
Numbers only, in ng/mL.

| binder | unitName | measuredNumber |
| --- | --- | --- |
| monoclonal antibody 1.18.1 (antibody, V domains shown) VH: QVQLVESGGGVVQPGRSLRLSCAASGFTFSSYGMHWVRQAPGKGLEWVAVIWYDRSNKYYADSVKGRFTISRDNSKNTLYLQMDSLRAEDTAVYYCAGGRSRGAFDYWGQGTLVTVSS VL: DIQMTQSPSSLSASVGDRVTITCRASQGIRNYLAWFQQKPGKAPKSLIYAASSLQSGVPSTFSGSGSGTHFTLTISSLQPEDFASYFCQQYEIYPLTFGGGTKVEIK | ng/mL | 38.1 |
| monoclonal antibody 1.100.1 (antibody, V domains shown) VH: QLQLQESGPGLVKPSETLSLTCTVSGGFISSSSYYWGWIRQPPGKGLEWIGTIYYSGTTYYNSSLKSRVTISVDTSQNQFSLKLSSVTAADTAVYYCARHHWVFDYWGQGTLVTVSS VL: EVVLTQSPDFQSVTPKEKITITCRASQIIGTSLHWYQKKPDQSPKLLIKYASQSFSGVPSRFSGSGSGTEFTLTINSLEAEDTATYYCHQSTNLPWTFGQGTKVEIK | ng/mL | 169 |

Let us examine a further case.
Name the reported N1 EC50 (ng/ml), inhibition of BT474 cell proliferation value associated with the binder monoclonal antibody 1.20 (antibody, V domains shown) VH: QLQLQESGPGLVKPSETLSLTCTVSGGSISSSNYYWGWIRQPPGKGLEWIGTIYYTGSTYYNPSLKSRVTISVDTSKNQFSLKLSSVTAADTAVYYCARHHWVFDYWGQGTLVTVSS VL: DIQMTQSPSSVSASVGDRVTITCRASQGISSWLAWYQQKPGKAPKLLIYAASSLQSGVPSRFSGSGSGTDFTLTISSLQPEDFATYYCQRTNSFPRTFGQGTKVEIK
85.3
